Source: the supplement of paper PMC11414989

- Test system: Danio rerio larvae (Tropical 5D)
- Experiment Summary: mean distance moved of exposed larvae, light phase (µm per frame (1/25 s)); higher = more movement
- Test Settings: 0.41 µM, exposure window: 6 hpf to 120 hpf, static, assay age: 120 hpf (5 dpf)
Measured Metric: mean distance moved of exposed larvae
No unit in the answer, please; the number alone is enough.

Item: C[Si](C)(C)C(F)(F)C(F)(F)C(F)(F)F | mean distance moved of exposed larvae: 1.51

Item: NC(=O)C(F)(F)C(F)(F)C(F)(F)C(F)(F)F [Nonafluoropentanamide] | mean distance moved of exposed larvae: 2.83

Item: NC(O)(C(F)(F)F)C(F)(F)F | mean distance moved of exposed larvae: 0.917

Item: O=S(=O)(O)C(F)(F)C(F)(F)C(F)(F)C(F)(F)C(F)(F)C(F)(F)F | mean distance moved of exposed larvae: 2.2

---

- Tested on: Danio rerio larvae (Tropical 5D)
- Experiment Summary: mean distance moved of exposed larvae, light phase (µm per frame (1/25 s)); higher = more movement
- Test Settings: 0.046 µM, exposure window: 6 hpf to 120 hpf, static, assay age: 120 hpf (5 dpf)
Measured Metric: mean distance moved of exposed larvae
No unit in the answer, please; the number alone is enough.

Some molecules with recorded mean distance moved of exposed larvae:
Molecule: C[Si](C)(C)C(F)(F)C(F)(F)C(F)(F)F
Assayed System: Danio rerio larvae (Tropical 5D)
mean distance moved of exposed larvae: 1.25
--
Molecule: O=S(=O)(O)C(F)(F)C(F)(F)C(F)(F)C(F)(F)C(F)(F)C(F)(F)F
Assayed System: Danio rerio larvae (Tropical 5D)
mean distance moved of exposed larvae: 2.46
--
Molecule: NC(O)(C(F)(F)F)C(F)(F)F
Assayed System: Danio rerio larvae (Tropical 5D)
mean distance moved of exposed larvae: 0.932

Shifting focus to the molecule that follows.
Item: NC(=O)C(F)(F)C(F)(F)C(F)(F)C(F)(F)F [Nonafluoropentanamide] | mean distance moved of exposed larvae: 4.1

---

- System: Danio rerio larvae (Tropical 5D)
- Experiment Summary: mean angular velocity of exposed larvae, dark phase (angular velocity (unit not stated)); higher = more movement
- Test Settings: 1.23 µM, exposure window: 6 hpf to 120 hpf, static, assay age: 120 hpf (5 dpf)
Measured Metric: mean angular velocity of exposed larvae
No unit in the answer, please; the number alone is enough.

Compound: O=S(=O)(O)C(F)(F)C(F)(F)C(F)(F)C(F)(F)C(F)(F)C(F)(F)F
mean angular velocity of exposed larvae: 0.884

Compound: NC(O)(C(F)(F)F)C(F)(F)F
mean angular velocity of exposed larvae: 0.344

Compound: C[Si](C)(C)C(F)(F)C(F)(F)C(F)(F)F
mean angular velocity of exposed larvae: 0.884

Shifting focus to the compound that follows.
Item: NC(=O)C(F)(F)C(F)(F)C(F)(F)C(F)(F)F [Nonafluoropentanamide] | mean angular velocity of exposed larvae: 0.649

---

- Test system: Danio rerio larvae (Tropical 5D)
- Experiment Summary: mean distance moved of exposed larvae, dark phase (µm per frame (1/25 s)); higher = more movement
- Test Settings: 100 µM, exposure window: 6 hpf to 120 hpf, static, assay age: 120 hpf (5 dpf)
Recorded mean distance moved of exposed larvae by entry
No unit in the answer, please; the number alone is enough.

Compound: Cc1ccc2c(ccc3ccccc32)c1 [2-Methylphenanthrene]
Measured Metric: mean distance moved of exposed larvae
Test Result: 13.2

Compound: O=S(=O)(O)C(F)(F)C(F)(F)C(F)(F)C(F)(F)C(F)(F)C(F)(F)F [Perfluorohexanesulfonic acid]
Measured Metric: mean distance moved of exposed larvae
Test Result: 3.15

Compound: NC(O)(C(F)(F)F)C(F)(F)F [2-Aminohexafluoropropan-2-ol]
Measured Metric: mean distance moved of exposed larvae
Test Result: 27.2

Item: c1ccc2c(c1)c1cccc3c4ccccc4c4cccc2c4c13 [Dibenzo[e-l]pyrene] | mean distance moved of exposed larvae: 9.64
